Attribution: the kinase profiling compilation of Christmann-Franck et al. (2016)

Target: UniProt Q96SB4
Sequence (Q96SB4 whole entry, looked up): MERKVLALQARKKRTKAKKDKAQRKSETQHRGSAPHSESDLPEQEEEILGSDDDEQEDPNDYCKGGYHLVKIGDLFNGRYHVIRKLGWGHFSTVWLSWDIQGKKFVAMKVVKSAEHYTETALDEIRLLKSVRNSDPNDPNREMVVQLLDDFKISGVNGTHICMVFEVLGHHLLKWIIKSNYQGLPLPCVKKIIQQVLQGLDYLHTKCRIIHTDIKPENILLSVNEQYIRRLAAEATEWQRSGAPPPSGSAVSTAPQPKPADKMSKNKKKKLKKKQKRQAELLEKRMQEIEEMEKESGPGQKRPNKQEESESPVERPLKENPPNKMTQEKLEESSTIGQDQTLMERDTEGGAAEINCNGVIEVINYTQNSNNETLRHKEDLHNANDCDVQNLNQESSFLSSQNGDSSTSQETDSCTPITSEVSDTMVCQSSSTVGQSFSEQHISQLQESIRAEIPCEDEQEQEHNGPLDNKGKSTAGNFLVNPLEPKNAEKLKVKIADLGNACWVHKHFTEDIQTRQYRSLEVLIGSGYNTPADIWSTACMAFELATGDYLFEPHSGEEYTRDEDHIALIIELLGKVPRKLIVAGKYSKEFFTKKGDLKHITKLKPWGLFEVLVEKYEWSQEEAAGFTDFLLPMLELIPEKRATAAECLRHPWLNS
Assay: radiometric filter-binding kinase assay
Details: compound 1.0 µM; ATP 50 µM
Readout type: residual activity (%)

molecule=O=C1c2ccccc2-c2n[nH]c3cccc1c23 recorded_measurement=84
molecule=COc1ccc2c(c1)=NC1=C(C)NCCC=21 recorded_measurement=89
molecule=O=S(=O)(NCCNC/C=C/c1ccc(Br)cc1)c1cccc2cnccc12 recorded_measurement=93
molecule=COC[C@H]1OC(=O)c2coc3c2[C@@]1(C)C1=C(C3=O)[C@@H]2CCC(=O)[C@@]2(C)C[C@H]1OC(C)=O recorded_measurement=73
molecule="CO[C@H]1CC2CC[C@@H](C)[C@@](O)(O2)C(=O)C(=O)N2CCCC[C@H]2C(=O)OC([C@H](C)C[C@@H]2CC[C@@H](O)[C@H](OC)C2)CC(=O)[C@H](C)/C=C(\\C)[C@@H](O)[C@@H](OC)C(=O)[C@H](C)C[C@H](C)/C=C/C=C/C=C/1C (stereo not given in full)" recorded_measurement=84
